Each recorded value in this set is attributed to patent US20220125947A1.

Biological target: Vg5/Vd2 TCR on SKW3 cells (UniProt A0JD36)
Sequence (A0JD36 20-115): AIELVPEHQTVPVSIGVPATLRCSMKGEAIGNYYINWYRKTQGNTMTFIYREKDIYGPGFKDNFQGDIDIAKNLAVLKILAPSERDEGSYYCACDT
Test: flow cytometry, dose-response binding at 37° C. on SKW3 cells expressing Vg5/Vd2
The following binders are listed with their measured Max. Activity (fold over background) values.
Returns: the value as a bare number; no unit string appended.

Study these solved cases before continuing.
VG9B162 (antibody, human IgG1, lambda, V domains shown) VH: QVQLVESGAEVTKPGASVKVSCKASGYTFTGDYMHWVRQAPGQGLEWMGWINPNSGYTNYAQKFQGRVTMTRDTSISTAYMELSRLRSDDTAVYYCAREGDAFDVWGQGTMVTVSS VL: QLVLTQSSSASGSPGQSVTISCTGTSSDVGGYNYVSWYQQHPGKAPKLMIYEVSKRPSGVPDRFSGSKSGNTASLTVSGLQAEDEADYYCNSYAGSNNFEVFGGGTKLTVLG = 2.44
VG9B33 (antibody, human IgG1, kappa, V domains shown) VH: EVQLVESGGGLVKPGGSLRLSCAASGFTFSSYNMNWVRQAPGKGLEWVSSISTSSSYIYYADSVKGRFTISRDNAKNSLYLQMNGLRAEDTAVYYCARDTSVTKYPDTFDIWGQGTMVTVSS VL: DIVMTQSPSSLSASVGDRVTITCRASQDINNYLAWFQQKPGKVPNLLIYGASTLQSGVPSRFTGSGSGTDFTLTISSLQPEDVATYYCQKYNSAPFTFGPGTKVDIKR = 2.85

Moving on to another binder below.
Prompt: Query (binder): VG9B191 (antibody, human IgG1, lambda, V domains shown) VH: EVQLVQSGGGLVKPGGSLRLSCAASGFTFSRYSMNWVRQAPGKGLEGVSSISSSSSYIYYADSVKGRFTISRDNAKNSLYLQMNSLRAEDTAVYYCARDGPTVNWDYYFDLWGRGTLVTVSS VL: QSVLTQPPSVSAAPGQKVTISCSGSSSNIGNNYVSWYQQLPGTAPKLLIYDNNKRPSGIPDRFSGSKSGTSATLGITGLQTGDEADYYCGTWDSSLSTSVVFGGGTKLTVLG ; field requested: Max. Activity (fold over background)
Completion: 17.2
